TARGET_SYSTEM: UniProt:Q13547
Sequence (Q13547 whole entry): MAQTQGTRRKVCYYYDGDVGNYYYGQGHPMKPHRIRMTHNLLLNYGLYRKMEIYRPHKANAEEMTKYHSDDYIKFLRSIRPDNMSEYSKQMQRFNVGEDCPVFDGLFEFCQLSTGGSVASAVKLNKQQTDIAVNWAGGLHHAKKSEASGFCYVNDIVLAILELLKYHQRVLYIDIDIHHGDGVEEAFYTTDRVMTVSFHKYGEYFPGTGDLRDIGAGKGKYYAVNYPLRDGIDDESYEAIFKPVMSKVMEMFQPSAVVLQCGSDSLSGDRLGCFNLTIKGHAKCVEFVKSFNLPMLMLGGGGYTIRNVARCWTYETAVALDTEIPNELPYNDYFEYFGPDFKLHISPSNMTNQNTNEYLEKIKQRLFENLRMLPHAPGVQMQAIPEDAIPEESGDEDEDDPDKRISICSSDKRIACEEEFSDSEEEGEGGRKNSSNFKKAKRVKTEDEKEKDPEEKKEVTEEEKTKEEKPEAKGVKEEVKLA
EXPERIMENTAL_PROTOCOL: HTRF enzyme inhibition assay, HDAC1
MEASUREMENT_SETUP: read-out: % enzyme inhibition HDAC
Threshold rule: inhibition at 1 µM greater than or equal to 60% is 1; below that, 0.

COMPOUND	GROUP_LABEL
O=C(CCCCCCC(=O)Nc1ccc([C@@H]2[C@H]3CSCN3[C@]3(C(=O)Nc4cc(Cl)ccc43)[C@H]2C(=O)c2ccccc2)cc1)NO [compound 7f]	1
Cc1ccc2c(c1)[C@@]1(C(=O)N2)[C@@H](C(=O)c2ccccc2)[C@H](c2ccc(NC(=O)CCCCCCC(=O)NO)cc2)[C@H]2CSCN21 [7b]	1
Nc1ccccc1NC(=O)CCC(=O)Nc1ccc([C@@H]2[C@H]3CSCN3[C@]3(C(=O)Nc4ccccc43)[C@H]2C(=O)c2ccccc2)cc1 [9a]	0
O=C(CCCCCCC(=O)N1CCC(C(=O)Nc2ccc([C@@H]3[C@H]4CSCN4[C@]4(C(=O)Nc5cc(Cl)ccc54)[C@H]3C(=O)c3ccccc3)cc2)CC1)NO [compound 11b]	1
O=C(CCCCCCC(=O)Nc1ccc([C@@H]2[C@H]3CSCN3[C@]3(C(=O)Nc4cc(Br)ccc43)[C@H]2C(=O)c2ccccc2)cc1)NO [7g]	1
O=C(CCCCCCC(=O)Nc1ccc([C@@H]2[C@H]3CSCN3[C@]3(C(=O)Nc4ccccc43)[C@H]2C(=O)c2cccc(Br)c2)cc1)NO [7n]	1
O=C(COCC(=O)Nc1ccc([C@@H]2[C@H]3CSCN3[C@]3(C(=O)Nc4cc(Cl)ccc43)[C@H]2C(=O)c2ccccc2)cc1)NO [7u]	0
Nc1ccccc1NC(=O)CCCCCCCCC(=O)Nc1ccc([C@@H]2[C@H]3CSCN3[C@]3(C(=O)Nc4cc(Cl)ccc43)[C@H]2C(=O)c2ccccc2)cc1 [9e]	0
Nc1ccccc1NC(=O)CCCCCCC(=O)Nc1ccc([C@@H]2[C@H]3CSCN3[C@]3(C(=O)Nc4cc(Cl)ccc43)[C@H]2C(=O)c2ccccc2)cc1 [9d]	0
O=C(CCCCC(=O)N1CCC(C(=O)Nc2ccc([C@@H]3[C@H]4CSCN4[C@]4(C(=O)Nc5cc(Cl)ccc54)[C@H]3C(=O)c3ccccc3)cc2)CC1)NO [11a]	1
O=C(CCCCC(=O)Nc1ccc(C(=O)Nc2ccc([C@@H]3[C@H]4CSCN4[C@]4(C(=O)Nc5cc(Cl)ccc54)[C@H]3C(=O)c3ccccc3)cc2)cc1)NO [7v]	0
CN1C[C@@H](c2ccc(NC(=O)CCCCCCC(=O)NO)cc2)[C@H](C(=O)c2ccccc2)[C@@]12C(=O)Nc1cc(Cl)ccc12 [13a]	1
O=C(CCCCCCC(=O)Nc1ccc([C@@H]2[C@H]3CSCN3[C@]3(C(=O)Nc4ccccc43)[C@H]2C(=O)c2ccccc2)cc1)NO [7a]	1
O=C(CCCCCCC(=O)Nc1ccc([C@@H]2[C@H]3CSCN3[C@]3(C(=O)Nc4ccc(F)cc43)[C@H]2C(=O)c2ccccc2)cc1)NO [7c]	1
O=C(CCCCCCC(=O)Nc1ccc([C@@H]2[C@H]3CSCN3[C@]3(C(=O)Nc4c(Br)cccc43)[C@H]2C(=O)c2ccccc2)cc1)NO [7i]	1
